Measured clearance, listed per entry for reference.
Assay: Mouse pharmacokinetics testing
Assay type: in vivo, CD1 female mice
Measurement Setup: female, CD1, mouse, in vivo, iv, 2 mg/kg

# Molecule, clearance / mL/min/kg
records = [
    ("[2H]C([2H])([2H])N(C(=O)C(=O)Nc1cnc(N)c2c1cnn2C)[C@@H]1COc2cc(C(F)(F)F)ccc21", 35.5),
    ("CN(C(=O)C(=O)Nc1cnc(N)c2c1cnn2C)[C@@H]1COCc2nc(C(F)(F)F)ccc21", 8.3),
    ("CN(C(=O)C(=O)Nc1cnc(N)c2c1cnn2C)[C@@H]1COc2cc(C(F)(F)F)ccc21", 82.4),
    ("CN(C(=O)C(=O)Nc1cnc(N)c2c1cnn2C)C1COc2cc(OC(F)(F)F)ccc21 (centres unmarked)", 23),
    ("[2H]C([2H])([2H])N(C(=O)C(=O)Nc1cnc(N)c2c1cnn2C)[C@@H]1COc2cc(SC(F)(F)F)ccc21", 41.8),
]
